Where do these numbers come from? They come from patent US4415566A.

System: Serratia marcescens ATCC 13880
Experiment: Serial dilution test in the microtiter system (MIC), Serrat. marcesc. ATCC 13880
Assay type: cell-based
Settings: ATCC13880, Table III, Serrat. marcesc. ATCC 13880, 37° C., 18-20 hours, read-out: MIC
readout: MIC (µg/mL)
Record the value in µg/mL, omitting the unit from your answer.

1) CC1(C)S[C@@H]2[C@H](NC(=O)[C@H](NC(=O)Nc3cnc(Nc4ccc(S(C)(=O)=O)nc4)nc3O)c3ccc(O)cc3)C(=O)N2[C@H]1C(=O)O	0.2

Req: Any idea what MIC was measured for `CC1(C)S[C@@H]2[C@H](NC(=O)[C@H](NC(=O)Nc3cnc(Nc4ccc(C(N)=O)s4)nc3O)c3ccc(O)cc3)C(=O)N2[C@H]1C(=O)O` ?
Resp: 0.2

Req: What about `CC1(C)S[C@@H]2[C@H](NC(=O)[C@H](NC(=O)Nc3cnc(NCc4cccs4)nc3O)c3ccc(O)cc3)C(=O)N2[C@H]1C(=O)O` ?
Resp: 0.5

Req: Can you handle `CC1(C)S[C@@H]2[C@H](NC(=O)[C@H](NC(=O)Nc3cnc(NCc4ccco4)nc3O)c3ccc(O)cc3)C(=O)N2[C@H]1C(=O)O` next?
Resp: 0.5
